- Tested on: Saccharomyces cerevisiae
- Assay Info: protein stability index of tFT-peptide fusion (C-terminal peptide) (PSI (0-1 scale)); higher = more stable (slower turnover)
- Measurement Context: genetic background: wild type; temperature: 30 C
Metric: protein stability index
Answers are plain numbers.

Some sequences with known protein stability index results, for comparison:
KTHTEYGYVMVA [YGR137W C-terminal 12 aa] :: 0.54
HNPSLWSCIFGK [SWS2 C-terminal 12 aa] :: 0.714
NTTRYNASLVNQ [DIA3 C-terminal 12 aa] :: 0.712
TKYKTVTVTAKT [YMR244W C-terminal 12 aa] :: 0.71
QLKLLNALDSVD [YDR537C C-terminal 12 aa] :: 0.757
PHYKPRDGSQVE [SPT4 C-terminal 12 aa] :: 0.65

// each sequence listed below needs its protein stability index
1. RRFDVYSDVNAH [NIT3 C-terminal 12 aa]
2. SFRSSHFYSLIA [YLR217W C-terminal 12 aa]
3. VVERTRQAHFAI [YEF1 C-terminal 12 aa]
4. CAAVEKGPILDA [THI74 C-terminal 12 aa]
5. WAVICFCSGIHK [YMR027W C-terminal 12 aa]

Ans.
1: 0.677; 2: 0.331; 3: 0.675; 4: 0.682; 5: 0.546

// each sequence listed below needs its protein stability index
1. RSFVTRFLHFWC [HIP1 C-terminal 12 aa]
2. YRVARKPSQPVM [MTO1 C-terminal 12 aa]

Ans.
1. 0.716
2. 0.683

// each sequence listed below needs its protein stability index
1. HTSVKALQRMTW [CTH1 C-terminal 12 aa]
2. WDFKKQGFASRD [PDA1 C-terminal 12 aa]
3. TRMSSPPPSTSS [SET2 C-terminal 12 aa]
4. VLSNNVPYTQPR [RCH1 C-terminal 12 aa]
5. PINDRKYPNQCH [SPR1 C-terminal 12 aa]
6. QFAQDTLKNFVQ [SAM35 C-terminal 12 aa]
7. SYFNTIMHNCKP [SET4 C-terminal 12 aa]
8. DRKQSQATNATN [ARP7 C-terminal 12 aa]

Ans.
1. 0.683
2. 0.693
3. 0.69
4. 0.745
5. 0.695
6. 0.713
7. 0.715
8. 0.671

The reported numbers originate from the supplement of paper PMC10724198.
